Assay: gradient 5% acetonitrile 3 min, to 50% in 2 min, to 85% in 15 min, held 3 min, 100 µL/min
Conditions: column: Zorbax Extend-C18 2.1 x 50 mm; eluents: water / acetonitrile, 0.1% formic acid
result.type: RP-LC retention time
Number first, unit second.

Hello, I would appreciate it if you could give RP-LC retention time for each entry below.
1. Cc1ccccc1C(=O)N1C(C(=O)NCC(C)C)COC12CCN(C(=O)C(C)(C)C)CC2 (stereo not given)
2. CCN1C(=O)C(C)(C(=O)NCc2cccc(OC)c2)Oc2cccnc21 (stereo not given)
3. CC1CCN(C(=O)C2CCc3sc(C(=O)N4CCCC4)cc3C2)CC1 (stereo not given)
4. COC(=O)c1ccc(Cl)cc1NC(=O)N1CCN(C)c2ncccc21

Solution:
782 s
829 s
843 s
700 s

Hello, I would appreciate it if you could give RP-LC retention time for each entry below.
1. CCc1nn2c(CNC(=O)c3ccsc3)c(-c3ccccc3)nc2s1
2. CCc1nnc(-c2nnc(NCCOc3ccccc3OC)c3ccccc23)o1
3. CCCCN1CCN(C(=O)c2ccc3c(c2)nc2n3CCN(C3CCCCC3)C2=O)CC1
4. O=C(Nc1cnccn1)c1ccc(S(=O)(=O)N2CCCCCC2)cc1
5. Cc1nc(-c2csc(S(=O)(=O)N3CCC(C(=O)NCCC(C)C)CC3)c2)no1
6. COc1ccccc1CNC(=O)Cn1nc(C)c2sc(-c3ccccc3)nc2c1=O

Solution:
["854 s", "790 s", "618 s", "766 s", "868 s", "884 s"]

Hello, I would appreciate it if you could give RP-LC retention time for each entry below.
1. O=C(c1c(F)cccc1F)N1CCN(S(=O)(=O)c2cc3c4c(c2)CCC(=O)N4CCC3)CC1
2. COc1cc(C(=O)N(Cc2ccc(N(C)C)cc2)CC2CCCO2)cc(OC)c1OC (stereo not given)
3. Fc1ccccc1CN1CCc2nc(N3CCOCC3)ncc2C1
4. Cc1ccc(NC(=O)N2CCCC2c2cc(C)no2)cc1 (stereo not given)
5. CN1C(=O)c2cc(C(=O)NCc3ccc(F)cc3)nn2CC1(C)C(=O)NCc1ccc(F)cc1 (stereo not given)
6. CCn1nccc1C(=O)N1C[C@@H]2C[C@H](NC(=O)c3ccccc3)[C@H]1C2
7. CC(=O)N[C@@H]1CN(C(=O)c2cc(Cl)ccc2F)C[C@H]1CO

Solution:
1. 799 s
2. 659 s
3. 590 s
4. 782 s
5. 760 s
6. 673 s
7. 608 s

Hello, I would appreciate it if you could give RP-LC retention time for each entry below.
1. O=C(CSc1nc2ncccc2[nH]1)N1CCN(c2ccc(F)cc2)CC1
2. Cc1cc(-c2csc(S(=O)(=O)NCCc3ccc(S(N)(=O)=O)cc3)c2)on1
3. CS(=O)(=O)N1CCC(CC(=O)NC2CCCCC2)C1 (stereo not given)

Solution:
1. 649 s
2. 744 s
3. 668 s

---

Assay: gradient 5% acetonitrile 3 min, to 50% in 2 min, to 85% in 15 min, held 3 min, 100 µL/min
Settings: column: Zorbax Extend-C18 2.1 x 50 mm; eluents: water / acetonitrile, 0.1% formic acid
Threshold rule: RP-LC retention time greater than or equal to 800 s is True; below that, False.

O=C(CSc1ccc(N2CCCC(C(=O)NC3CC3)C2)nn1)Nc1ccc(C(F)(F)F)cc1 (centres undefined)    False

Exercise: Evaluate Cc1ccc2c(Nc3ccc(CC(=O)O)cc3)c(C(=O)N3CCCCCC3)cnc2n1 : RP-LC retention time at minimum 800 s?
Solution: False

Exercise: Evaluate O=C(COc1ccc(F)cc1)N1CCCC1c1nc(-c2ccc(F)cc2F)no1 (centres undefined) : RP-LC retention time at minimum 800 s?
Solution: True
